PROTOCOL DETAILS: Retention time, log K of the compound
Type: ADME
MEASUREMENT NAME: log K
Form rule: numeric answer, no unit written next to it.

The molecule CC1(C)N([O])C(c2ccc(Cl)cc2)=[N+]([O-])C1(C)C showed log K equal to 1.6

The molecule Cc1ccc(C2=[N+]([O-])C(C)(C)C(C)(C)N2[O])cc1 showed log K equal to 1.309

The molecule COc1ccc(C2=[N+]([O-])C(C)(C)C(C)(C)N2[O])cc1O showed log K equal to 0.534

The molecule CC1(C)N([O])C(c2ccccc2[N+](=O)[O-])=[N+]([O-])C1(C)C showed log K equal to 0.598

The molecule CC1(C)N([O])C(c2ccc(O)cc2)=[N+]([O-])C1(C)C showed log K equal to 0.483

The molecule CC1(C)N([O])C(c2cccc([N+](=O)[O-])c2)=[N+]([O-])C1(C)C showed log K equal to 1.157

The molecule CN(C)c1ccc(C2=[N+]([O-])C(C)(C)C(C)(C)N2[O])cc1 showed log K equal to 1.328

The molecule CC1(C)N([O])C(c2cccc(O)c2)=[N+]([O-])C1(C)C showed log K equal to 0.546

The molecule CC1(C)N([O])C(c2ccc(Br)cc2)=[N+]([O-])C1(C)C showed log K equal to 1.713

The molecule COc1cc(C2=[N+]([O-])C(C)(C)C(C)(C)N2[O])ccc1O showed log K equal to 0.558

The molecule CC1(C)N([O])C(c2ccc([N+](=O)[O-])cc2)=[N+]([O-])C1(C)C showed log K equal to 1.245
